Recorded measurements of GE-HTS, one per entry
System: OXPHOS gene expression
Format: cell-based, mouse

Take a look at these entries with their results.
{"compound": "CN(C)CCCN1c2ccccc2Sc2ccc(C(F)(F)F)cc21 [triflupromazine]", "result": 0.225}
{"compound": "CN1CCCC(CC2c3ccccc3Sc3ccccc32)C1 (stereo not drawn) [metixene]", "result": "−1.190"}
{"compound": "CCCC(C(=O)OCCN(CC)CC)(c1ccccc1)c1ccccc1 [proadifen]", "result": "−0.364"}
{"compound": "O=C(O[C@@H]1Cc2c(O)cc(O)cc2O[C@@H]1c1cc(O)c(=O)c2c(O)c(O)cc([C@H]3Oc4cc(O)cc(O)c4C[C@H]3OC(=O)c3cc(O)c(O)c(O)c3)c2c1)c1cc(O)c(O)c(O)c1 [theaflavin digallate]", "result": 0.783}
{"compound": "C[C@]12CC[C@H]3[C@@H](CC[C@]4(O)C[C@@H](O)CC[C@]34C=O)[C@@]1(O)CC[C@@H]2C1=CC(=O)OC1 [strophanthidin]", "result": "−0.590"}
{"compound": "C[N+]12CCC(CC1)C(OC(=O)C(O)(c1ccccc1)c1ccccc1)C2 (stereo not drawn) [clidinium]", "result": "−0.462"}
{"compound": "C[C@]12CC[C@H]3C(=CCc4cc(O)ccc43)[C@@H]1CCC2=O [equilin]", "result": "−0.626"}
{"compound": "CN(C)c1nc(N(C)C)nc(N(C)C)n1 [altretamine]", "result": 0.884}

Query: Give OXPHOS gene expression GE-HTS for the following compound: CC1COc2c(N3CCN(C)CC3)c(F)cc3c(=O)c(C(=O)O)cn1c23 (stereo not drawn) [ofloxacin]
Result: 0.182

Query: Give OXPHOS gene expression GE-HTS for the following compound: OC(CCN1CCCCC1)(c1ccccc1)C1CC2C=CC1C2 (stereo not drawn) [biperiden]
Result: −0.817

Query: Give OXPHOS gene expression GE-HTS for the following compound: COC(=O)[C@H](c1ccccc1Cl)N1CCc2sccc2C1 [clopidogrel]
Result: −1.470

Query: Give OXPHOS gene expression GE-HTS for the following compound: CNC[C@H](O)c1cccc(O)c1 [phenylephrine]
Result: 0.254

Query: Give OXPHOS gene expression GE-HTS for the following compound: O=C(CCBr)N1CCN(C(=O)CCBr)CC1 [pipobroman]
Result: −1.074

Query: Give OXPHOS gene expression GE-HTS for the following compound: C[C@H]1C[C@@H]2[C@H]([C@@H](O)C[C@@]3(C)[C@H]2CC[C@]3(O)C(=O)CO)[C@@]2(C)C=CC(=O)C=C12 [methylprednisolone]
Result: −0.220

Query: Give OXPHOS gene expression GE-HTS for the following compound: C1COC(NC(C2CC2)C2CC2)=N1 [rilmenidine]
Result: 0.123

---

Recorded measurements of Viability, one per entry
Test system: C2C12 myotubes
Conditions: Table 4; C2C12 myotubes, 48 h, composite Z-score
Form rule: numeric answer, no unit written next to it.

Take a look at these entries with their results.
{"compound": "O=C1c2ccc(O)cc2OC(c2cc(O)c(O)c(O)c2)C1O (stereo in doubt) [dihydrorobinetin, reference compound]", "assay-readout": "Viability", "result": "−1.070"}
{"compound": "Oc1ccc([C@H]2Oc3cc(O)cc(O)c3C[C@H]2O)cc1 [epiafzelechin(2r,3r)(−), reference compound]", "assay-readout": "Viability", "result": "−0.719"}
{"compound": "COc1ccc([C@H]2Oc3c(I)c(OC)cc(OC)c3C[C@@H]2O)cc1OC [8-iodocatechin tetramethyl ether, reference compound]", "assay-readout": "Viability", "result": 0.377}
{"compound": "COc1cc2c(cc1OC)[C@@H]1C(=O)c3ccc4c(c3O[C@@H]1CO2)C=CC(C)(C)O4 [deguelin(−), reference compound]", "assay-readout": "Viability", "result": "−0.940"}

Query: Find the measured Viability of Cc1cc(O)c2c(c1O)C(=O)c1c(O)cc(C)c(O)c1C2=O [reference compound] and report it.
Result: −0.853

Query: Find the measured Viability of COc1cc2c(cc1OC)[C@@H]1C(=O)c3c(O)cc4c(c3O[C@@H]1CO2)C=CC(C)(C)O4 [alpha-toxicarol, reference compound] and report it.
Result: 0.304

Query: Find the measured Viability of COc1cc2c(cc1OC)C1C(=O)c3c(cc4c(c3O)C=CC(C)(C)O4)OC1CO2 (stereo not drawn) [beta-toxicarol, reference compound] and report it.
Result: 0.672

Query: Find the measured Viability of COC(=O)Nc1nc2ccc(SC(C)C)cc2[nH]1 [methiazole, reference compound] and report it.
Result: −0.683

Query: Find the measured Viability of CCC(C)C(OC(C)=O)C(=O)O[C@H]1[C@H](O)[C@@H]2[C@@]3(C)C=CC(=O)C(C)(C)[C@@H]3C[C@@H](OC(=O)C(O)C(C)C)[C@@]2(C)[C@@]23O[C@@H]2C[C@@H](c2ccoc2)[C@]13C (stereo partly drawn) [heudelottin C, reference compound] and report it.
Result: −0.829

---

Test system: OXPHOS gene expression
Assay type: cell-based, mouse
Conditions: composite Z-score vs mock-treated (DMSO) wells; concentration of each compound in μM
Counter-ions that a name gives are not always drawn. Where a SMILES comes first, the peptide text is derived from it. The star is where a group is joined. Tfa = O=C(C(F)(F)F)*
assay-readout: GE-HTS
Form rule: numeric answer, no unit written next to it.

Take a look at these entries with their results.
{"compound": "CC(C(=O)O)[C@H]1CCC2C3CC=C4C[C@@H](O)CC[C@]4(C)C3CC[C@@]21C (some centres unmarked)", "assay-system": "OXPHOS gene expression", "GE-HTS": 0.756}
{"compound": "CC(C)[C@H](NC(=O)[C@H](Cc1ccc(O)cc1)NC(=O)[C@@H](NC(=O)C(F)(F)F)C(C)C)C(=O)O [TFA-Val-Tyr-Val-OH] (Tfa-Val-Tyr-Val-OH)", "assay-system": "OXPHOS gene expression", "GE-HTS": 0.294}
{"compound": "C/C1=C2/[N-][C@H]([C@H](CC(N)=O)[C@@]2(C)CCC(=O)NC[C@@H](C)OP(=O)([O-])O[C@H]2[C@@H](O)[C@@H](n3cnc4cc(C)c(C)cc43)O[C@@H]2CO)[C@]2(C)N=C(/C(C)=C3N=C(/C=C4N=C1[C@@H](CCC(N)=O)C\\4(C)C)[C@@H](CCC(N)=O)[C@]\\3(C)CC(N)=O)[C@@H](CCC(N)=O)[C@]2(C)CC(N)=O.[Co] [cobalamine]", "assay-system": "OXPHOS gene expression", "GE-HTS": "−0.402"}
{"compound": "CN1Cc2c(ccc3c2OCO3)[C@@H]2[C@H]1c1cc3c(cc1C[C@@H]2O)OCO3 [(+)-chelidonine]", "assay-system": "OXPHOS gene expression", "GE-HTS": 0.941}

Let us examine a further case.
Query: Find the measured GE-HTS of CC(=O)O.CSC(=N)NCCC[C@H](N)C(=O)O [S-methyl-L-thiocitrulline acetate] and report it.
Result: 0.291

---

Recorded measurements of ROS (composite Z-score), one per entry
Test system: reactive oxygen species
Assay type: cell-based, mouse
Details: Conc 20 μM; normalized score vs mock-treated (DMSO) wells
Form rule: numeric answer, no unit written next to it.

{"compound": "C=C1C2CC[C@@]3(C)[C@H](c4ccoc4)OC(=O)C[C@]13O[C@H]1CC(=O)C(C)(C)[C@H](C(OC(C)=O)C(=O)OC)[C@@]21C (some centres unmarked) [6-acetoxyangolensic acid methyl ester]", "ROS (composite Z-score)": 1.137}
{"compound": "COc1cc(O)c2c(=O)c(-c3ccc(O)cc3)coc2c1OC [isotectorigenin, 7-methyl ether]", "ROS (composite Z-score)": 0.644}
{"compound": "CC(=O)Oc1cccc2c1C(=O)c1c(OC(C)=O)cc(C(=O)O)cc1C2=O [diacerin]", "ROS (composite Z-score)": 0.228}
{"compound": "COc1ccc2c(c1)OC/C(=C/c1ccc(OC)c(OC)c1)C2=O [sappanone A trimethyl ether]", "ROS (composite Z-score)": 0.120}
{"compound": "CC(C)(C#N)O[C@@H]1O[C@H](CO)[C@@H](O)[C@H](O)[C@H]1O [linamarin]", "ROS (composite Z-score)": "−0.189"}

Query: Give reactive oxygen species ROS (composite Z-score) for the following compound: COc1ccc(/C=C/C(=O)O)cc1OC [dimethylcaffeic acid]
Result: −0.142

Query: Give reactive oxygen species ROS (composite Z-score) for the following compound: COc1ccc([C@H]2COc3cc(O)ccc3C2)c(OC)c1O [mucronulatol]
Result: −0.187

Query: Give reactive oxygen species ROS (composite Z-score) for the following compound: O=C(O)c1nc2cc(Cl)c(Cl)cc2nc1O
Result: 0.666
